# credit: paper PMC12745320

tested on: PTL-1 (DNA, aptamer) GACGACGGCCAAGCTAACGGCTGCTAAGCATGTGGAGTCGTC; experiment: ThT fluorescence displacement; settings: 150 mM NaCl, 5 mM MgCl2 (main text; supplement: 2.0 mM MgCl2); 10 mM MES (supplement: 20 mM), pH 6.0; ThT displaced; tested at 200 μM
measure: binding

[
  {
    "smiles str": "CS(=O)(=O)c1ccc([C@@H](O)[C@@H](CO)NC(=O)C(Cl)Cl)cc1",
    "measure": "binding",
    "observed": "no"
  },
  {
    "smiles str": "CC1(C)S[C@@H]2[C@H](NC(=O)Cc3ccccc3)C(=O)N2[C@H]1C(=O)O",
    "measure": "binding",
    "observed": "no"
  },
  {
    "smiles str": "CCCC[C@@H](C)[C@@H](OC(=O)C[C@@H](CC(=O)O)C(=O)O)[C@H](C[C@@H](C)C[C@H](O)CCCC[C@@H](O)C[C@H](O)[C@H](C)N)OC(=O)C[C@@H](CC(=O)O)C(=O)O",
    "measure": "binding",
    "observed": "no"
  },
  {
    "smiles str": "C[C@@H]1C[C@H]2[C@@H]3CCC4=CC(=O)C=C[C@]4(C)[C@@]3(F)[C@@H](O)C[C@]2(C)[C@@]1(O)C(=O)CO",
    "measure": "binding",
    "observed": "no"
  },
  {
    "smiles str": "O=C(N[C@H](CO)[C@H](O)c1ccc([N+](=O)[O-])cc1)C(Cl)Cl",
    "measure": "binding",
    "observed": "no"
  },
  {
    "smiles str": "NC(=O)N1c2ccccc2C=Cc2ccccc21",
    "measure": "binding",
    "observed": "no"
  }
]

Param item = Cc1ncc([N+](=O)[O-])n1CCO ; retrieve measured binding.
no

Given CC1(C)S[C@@H]2[C@H](NC(=O)[C@H](N)c3ccccc3)C(=O)N2[C@H]1C(=O)O , state its recorded binding.
no
